- Measurement Protocol: Incorporation into clots induced in a rat model (rat inferior vena cava model)
- Format: in vivo, rat (Male Wistar)
- Test Context: Fresh Clots
*1 amine or outer side, *2 acyl side, *3 side chain or, on linkers, in order; H or OH if unused. The star is where a group is joined. Fmoc = O=C(OCC1c2ccccc2-c2ccccc21)*; Glutaryl = O=C(CCCC(=O)[*:2])[*:1]
Threshold rule: Clot/liver greater than or equal to 10 is True; below that, False.

// known answers, use as guide
>>> classification("Ac-NQEQVSPYTLLKG-Hynic (also: 99mTc complex) [^99mTc-Cmpd 4]")
"True"
>>> classification("Ac-NQEAVSPYTLLKG-Pn216 (also: 99mTc complex) [^99mTc-Cmpd 13]")
"True"
>>> classification("Pn44-CO(CH2)3CO-NQEQVSPYTLLKG-NH2 ({Pn44-Glutaryl}-NQEQVSPYTLLKG-NH2; also: 99mTc complex) [^99mTc-Cmpd 38]")
"False"
>>> classification("Ac-N—CH2NH2-QEQVSP(D-Y)TLL(D-K)G-Pn216 [^99mTc-Cmpd 34]")
"False"
>>> classification("Fmoc-NQEQVSPYTLLKG-Pn216 (also: 99mTc complex) [^99mTc-Cmpd 9]")
"True"

Say whether Ac-LEFDTQSKNILG-Pn216 (also: 99mTc complex) [^99mTc-Cmpd 47] shows Clot/liver of 10 or more.
False

Ok, now Ac-NQEQVSPYTLLKG-NH2 [^123I-Cmpd 2]
True

Now consider Ac-NQQQVSPYTLLKG-Pn216 (also: 99mTc complex) [^99mTc-Cmpd 15] .
True
